# TARGET_OF_ASSAY: wild-type human cardiac sodium channel, hNav1.5 (late sodium current) in HEK293 cells (Homo sapiens, UniProt Q14524)
# Sequence (Q14524 whole entry): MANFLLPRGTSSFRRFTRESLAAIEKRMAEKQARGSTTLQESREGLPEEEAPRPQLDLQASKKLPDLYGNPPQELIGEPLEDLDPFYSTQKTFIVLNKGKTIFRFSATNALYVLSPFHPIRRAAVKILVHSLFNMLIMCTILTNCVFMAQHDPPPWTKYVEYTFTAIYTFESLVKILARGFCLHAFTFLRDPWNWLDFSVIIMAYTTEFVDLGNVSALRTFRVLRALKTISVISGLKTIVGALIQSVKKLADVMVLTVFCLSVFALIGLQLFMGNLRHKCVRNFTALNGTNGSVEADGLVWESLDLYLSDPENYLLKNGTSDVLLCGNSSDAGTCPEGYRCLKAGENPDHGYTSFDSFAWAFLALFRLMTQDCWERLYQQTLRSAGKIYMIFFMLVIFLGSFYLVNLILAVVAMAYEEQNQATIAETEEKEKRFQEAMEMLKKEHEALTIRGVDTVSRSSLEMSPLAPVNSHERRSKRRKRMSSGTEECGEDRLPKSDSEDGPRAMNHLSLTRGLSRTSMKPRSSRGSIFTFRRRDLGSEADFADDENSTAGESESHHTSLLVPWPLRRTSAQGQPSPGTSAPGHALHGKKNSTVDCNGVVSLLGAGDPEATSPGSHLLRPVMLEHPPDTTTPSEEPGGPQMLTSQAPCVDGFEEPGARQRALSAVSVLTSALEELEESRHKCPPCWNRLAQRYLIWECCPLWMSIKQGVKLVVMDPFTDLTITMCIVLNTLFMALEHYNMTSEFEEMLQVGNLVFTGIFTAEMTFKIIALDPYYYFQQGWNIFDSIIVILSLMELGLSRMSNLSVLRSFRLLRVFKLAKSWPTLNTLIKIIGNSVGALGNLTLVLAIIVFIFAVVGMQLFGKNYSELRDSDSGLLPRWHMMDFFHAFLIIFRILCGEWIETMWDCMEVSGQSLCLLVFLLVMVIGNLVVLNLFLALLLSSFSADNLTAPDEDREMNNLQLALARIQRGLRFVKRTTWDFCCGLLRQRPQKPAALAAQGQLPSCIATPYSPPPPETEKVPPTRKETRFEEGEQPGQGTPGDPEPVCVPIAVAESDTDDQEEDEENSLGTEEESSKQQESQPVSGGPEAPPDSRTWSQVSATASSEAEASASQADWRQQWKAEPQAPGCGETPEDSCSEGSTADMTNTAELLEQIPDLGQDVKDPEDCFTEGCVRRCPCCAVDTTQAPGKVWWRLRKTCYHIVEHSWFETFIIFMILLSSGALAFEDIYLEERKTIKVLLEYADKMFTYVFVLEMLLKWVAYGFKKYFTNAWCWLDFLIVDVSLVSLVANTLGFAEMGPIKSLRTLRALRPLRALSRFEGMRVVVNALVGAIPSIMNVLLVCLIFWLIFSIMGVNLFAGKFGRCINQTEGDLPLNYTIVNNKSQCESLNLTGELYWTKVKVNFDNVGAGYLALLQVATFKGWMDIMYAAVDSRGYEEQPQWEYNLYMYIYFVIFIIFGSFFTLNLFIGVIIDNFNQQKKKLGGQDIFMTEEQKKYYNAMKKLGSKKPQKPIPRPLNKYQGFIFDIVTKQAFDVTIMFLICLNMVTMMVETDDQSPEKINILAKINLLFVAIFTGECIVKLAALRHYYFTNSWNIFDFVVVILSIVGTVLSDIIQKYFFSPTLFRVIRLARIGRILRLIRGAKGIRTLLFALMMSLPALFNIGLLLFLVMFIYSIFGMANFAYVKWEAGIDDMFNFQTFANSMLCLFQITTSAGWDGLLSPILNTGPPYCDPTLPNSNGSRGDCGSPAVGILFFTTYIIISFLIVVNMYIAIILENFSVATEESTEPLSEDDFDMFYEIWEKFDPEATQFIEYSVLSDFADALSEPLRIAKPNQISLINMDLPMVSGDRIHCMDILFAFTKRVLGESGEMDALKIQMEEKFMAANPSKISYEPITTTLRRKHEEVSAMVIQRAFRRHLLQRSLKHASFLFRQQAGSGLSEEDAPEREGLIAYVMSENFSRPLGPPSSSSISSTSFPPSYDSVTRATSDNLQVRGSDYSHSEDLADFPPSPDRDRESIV
# ASSAY_METHOD_TEXT: Late INa screening assay (automated whole-cell patch clamp, PatchXpress)
# Type: cell-based
# STUDY_CONDITIONS: HEK293, compound at 1 μM; late INa generated with 10 μM Tefluthrin (or 50 nM ATX II); HEK293 hNav1.5; read-out: Late INa 1 μM (percent block of late INa)
QUANTITY: inhibition at 1 µM (%)
Give the value, in units of %, as a plain number.

Entry O=c1n(CC#Cc2cnccc2Cl)nc2ccc(-c3ccc(OC(F)(F)F)cc3)cn12 , inhibition at 1 µM reported as 11.1

Item: Cc1ccn(CCn2nc3ccc(-c4ccc(OC(F)(F)F)cc4)cn3c2=O)n1 | inhibition at 1 µM: 18.9

Memo: O=c1n(CCCOc2ccccc2F)nc2ccc(-c3ccc(OC(F)(F)F)cc3)cn12 , reported inhibition at 1 µM: 25.6

In plain terms, COc1cc(F)ccc1OCC(O)Cn1nc2ccc(-c3ccc(OC(F)(F)F)cc3)cn2c1=O (stereo not shown) has a documented inhibition at 1 µM of 23.2

###

# TARGET_OF_ASSAY: wild-type human cardiac sodium channel, hNav1.5 (late sodium current) in HEK293 cells (Homo sapiens)
# ASSAY_METHOD_TEXT: Late INa screening assay (automated whole-cell patch clamp, PatchXpress)
# Type: cell-based
# STUDY_CONDITIONS: HEK293, compound at 1 μM; late INa generated with 10 μM Tefluthrin (or 50 nM ATX II); HEK293 hNav1.5; read-out: Late INa 1 μM (percent block of late INa)
Measured inhibition at 1 µM by item
I only need the number, in %, no unit after it.

// worked examples, inhibition at 1 µM included
O=c1n(Cc2ncon2)nc2ccc(-c3ccc(OC(F)(F)F)cc3)cn12 [compound 27]; 11.2
O=c1n(CCc2ccc(-c3cccnc3)cn2)nc2ccc(-c3ccc(OC(F)(F)F)cc3)cn12 [compound 74]; 11.1
O=c1n(CCCc2ccc(F)c(-c3cccnc3)c2)nc2ccc(-c3ccc(OC(F)(F)F)cc3)cn12 [compound 121]; 13.1
Cc1nc(Cn2nc3ccc(-c4ccc(C(F)(F)F)cc4)cn3c2=O)oc1C [compound 173]; 22.2
COc1ccccc1OCCn1nc2ccc(-c3ccc(OC(F)(F)F)cc3)cn2c1=O [compound 69]; 32.5

For CCc1noc(Cn2nc3ccc(-c4ccc(C(F)(F)F)cc4)cn3c2=O)n1 [compound 167] the molecule record lists inhibition at 1 µM as 26.2

// inhibition at 1 µM lookup, molecule = O=c1n(CCOc2nccc(OCC(F)(F)F)n2)nc2ccc(-c3ccc(OC(F)(F)F)cc3)cn12 [compound 178] , result: 14.2

Input [2H]C([2H])([2H])c1noc(Cn2nc3ccc(-c4ccc(OC(F)(F)F)cc4)cn3c2=O)n1 [compound 169] . Output inhibition at 1 µM: 24.1

###

# TARGET_OF_ASSAY: wild-type human cardiac sodium channel, hNav1.5 (late sodium current) in HEK293 cells (Homo sapiens, UniProt Q14524)
# ASSAY_METHOD_TEXT: Late INa screening assay (automated whole-cell patch clamp, PatchXpress)
# Assay type: cell-based
# STUDY_CONDITIONS: HEK293, compound at 1 μM; late INa generated with 10 μM Tefluthrin (or 50 nM ATX II); HEK293 hNav1.5; read-out: Late INa 1 μM (percent block of late INa)
Respond with y for inhibition at 1 µM values of 20% and above, n for values below.

Worked set:
Cc1noc(Cn2nc3ccc(-c4ccc(F)c(F)c4)cn3c2=O)n1 [compound 150]; n
CCOc1ccnc(OCCn2nc3ccc(-c4ccc(OC(F)(F)F)cc4)cn3c2=O)n1 [compound 106]; y
O=c1n(Cc2ccc3ccccc3n2)nc2ccc(-c3ccc(OC(F)(F)F)cc3)cn12 [compound 13]; y
Cc1noc(Cn2nc3ccc(-c4ccc(Cl)cc4)cn3c2=O)n1 [compound 149]; y

Identify whether the reported inhibition at 1 µM of the following compound is 20% or greater: O=c1n(C/C=C/c2ccccc2)nc2ccc(-c3ccc(OC(F)(F)F)cc3)cn12 [compound 151] n

# check: inhibition at 1 µM of O=c1n(CCc2ccccn2)nc2ccc(-c3ccc(OC(F)(F)F)cc3)cn12 [compound 36] is greater than or equal to 20% y

I'd appreciate it if you could say whether Cc1nc2ccc(OCC(O)Cn3nc4ccc(-c5ccc(OC(F)(F)F)cc5)cn4c3=O)cc2s1 (centres unmarked) [compound 107] has inhibition at 1 µM at least equal to 20%. y

###

# TARGET_OF_ASSAY: wild-type human cardiac sodium channel, hNav1.5 (late sodium current) in HEK293 cells (Homo sapiens, UniProt Q14524)
# ASSAY_METHOD_TEXT: Late INa screening assay (automated whole-cell patch clamp, PatchXpress)
# Assay type: cell-based
# STUDY_CONDITIONS: HEK293, compound at 1 μM; late INa generated with 10 μM Tefluthrin (or 50 nM ATX II); HEK293 hNav1.5; read-out: Late INa 1 μM (percent block of late INa)
QUANTITY: inhibition at 1 µM (%)
Report the value in % with no unit label.

Worked examples follow.
O=c1n(Cc2nc(-c3c(Cl)cccc3Cl)no2)nc2ccc(-c3ccc(OC(F)(F)F)cc3)cn12 [compound 9]; 29.8
O=c1n(CCOc2ccccn2)nc2ccc(-c3ccc(OC(F)(F)F)cc3)cn12 [compound 49]; 29.9

Turning to the following compound.
Value of inhibition at 1 µM reported for the compound Cc1cnc(Cn2nc3ccc(-c4ccc(OC(F)(F)F)cc4)cn3c2=O)o1 [compound 25] is 30.3

###

Item-by-item account of inhibition at 1 µM
# TARGET_OF_ASSAY: wild-type human cardiac sodium channel, hNav1.5 (late sodium current) in HEK293 cells (Homo sapiens)
# ASSAY_METHOD_TEXT: Late INa screening assay (automated whole-cell patch clamp, PatchXpress)
# Type: cell-based
# STUDY_CONDITIONS: HEK293, compound at 1 μM; late INa generated with 10 μM Tefluthrin (or 50 nM ATX II); HEK293 hNav1.5; read-out: Late INa 1 μM (percent block of late INa)
Give the number; % is assumed, so skip it.

O=c1n(Cc2nc3ccccc3s2)nc2ccc(-c3ccc(OC(F)(F)F)cc3)cn12; 17.4
O=c1n(CCOc2nccc(OCC3CC3)n2)nc2ccc(-c3ccc(OC(F)(F)F)cc3)cn12; 30.3
O=c1n(Cc2ncc(C3CC3)o2)nc2ccc(-c3ccc(OC(F)(F)F)cc3)cn12; 22.5
O=c1n(CCOc2ccc(Cl)cc2)nc2ccc(-c3ccc(OC(F)(F)F)cc3)cn12; 34.3
O=c1n(CC(O)COc2ccccc2-c2ccccc2)nc2ccc(-c3ccc(OC(F)(F)F)cc3)cn12 (stereo not shown); 18

According to the records, this molecule Cc1nnc(Cn2nc3ccc(-c4ccc(OC(F)(F)F)cc4)cn3c2=O)o1 displays inhibition at 1 µM of 11.5

Lab book: inhibition at 1 µM of CCOc1ccccc1OCC(O)Cn1nc2ccc(-c3ccc(OC(F)(F)F)cc3)cn2c1=O (stereo not shown) noted as 36.5

Data point: Cc1nonc1Cn1nc2ccc(-c3ccc(OC(F)(F)F)cc3)cn2c1=O ; inhibition at 1 µM = 41.3

# inhibition at 1 µM of COC[C@H](Cn1nc2ccc(-c3ccc(OC(F)(F)F)cc3)cn2c1=O)Oc1ncccc1C(F)(F)F = 58.3

Entry under test: COC[C@@H](Cn1nc2ccc(-c3ccc(OC(F)(F)F)cc3)cn2c1=O)Oc1ncccc1C(F)(F)F . Its inhibition at 1 µM was 41.9

###

# TARGET_OF_ASSAY: wild-type human cardiac sodium channel, hNav1.5 (late sodium current) in HEK293 cells (Homo sapiens)
# ASSAY_METHOD_TEXT: Late INa screening assay (automated whole-cell patch clamp, PatchXpress)
# Type: cell-based
# STUDY_CONDITIONS: HEK293, compound at 1 μM; late INa generated with 10 μM Tefluthrin (or 50 nM ATX II); HEK293 hNav1.5; read-out: Late INa 1 μM (percent block of late INa)
Assign class by inhibition at 1 µM: not lower than 20% means Condition met; lower than 20% means Condition not met.

Some entries whose results are on file:
Cc1cc(Cn2nc3ccc(-c4ccc(OC(F)(F)F)cc4)cn3c2=O)no1; Condition met
O=c1n(CCOc2cccc(C(F)(F)F)n2)nc2ccc(-c3ccc(OC(F)(F)F)cc3)cn12; Condition met
COCc1noc(Cn2nc3ccc(-c4ccc(OC(F)(F)F)cc4)cn3c2=O)n1; Condition met

Please indicate if the recorded inhibition at 1 µM for N#Cc1ccccc1OCCCn1nc2ccc(-c3ccc(OC(F)(F)F)cc3)cn2c1=O meets or exceeds 20%. Condition met

Does O=c1n(CCOc2ncc(F)cn2)nc2ccc(-c3ccc(OC(F)(F)F)cc3)cn12 have a reported inhibition at 1 µM of at least 20%? Condition met

Form field: inhibition at 1 µM at least 20%? Entry: O=c1n(CCc2ccncn2)nc2ccc(-c3ccc(OC(F)(F)F)cc3)cn12 Condition not met

# check: inhibition at 1 µM of CC(C)(C)c1cnc(Cn2nc3ccc(-c4ccc(OC(F)(F)F)cc4)cn3c2=O)o1 is greater than or equal to 20% Condition not met

// inclusive: inhibition at 1 µM at least 20%? input: CCOC(COc1ccc(F)cc1OC)Cn1nc2ccc(-c3ccc(OC(F)(F)F)cc3)cn2c1=O (stereo not shown) Condition met

Dear colleague, could you confirm whether O=c1n(CCn2cnc(-c3ccccc3)c2)nc2ccc(-c3ccc(OC(F)(F)F)cc3)cn12 has inhibition at 1 µM at or above 20%? Condition not met
